The entries that follow carry IC50 values tested on human DGAT1 (Homo sapiens), drawn from several published reports.

Examples with their reported IC50 follow.
Response field IC50 (human DGAT1 (Homo sapiens)) for item CC1(CC(=O)O)CCc2cc(-c3ccc(Nc4ccc(C(F)(F)F)nc4)cn3)ccc2C1=O (single isomer, unassigned) : 500 to 10000 nM

Response field IC50 (human DGAT1 (Homo sapiens)) for item "Cc1nc(N)c2c(n1)OC(C)(C)C(c1ccc([C@H]3CC[C@H](CC(=O)NS(C)(=O)=O)CC3)cc1)=N2" : < 10 nM

Switching to the query record.
Response field IC50 (human DGAT1 (Homo sapiens)) for item "O=C(Nc1ccc(N2CCC(n3c(=O)[nH]c4ccccc43)CC2)nc1)c1oc(-c2ccccc2)nc1C(F)(F)F" : 101 to 500 nM

###

The entries that follow carry pIC50 values tested on UniProtKB O75907, drawn from several published reports.
pIC50: −log10 of the molar value.
Quantity: pIC50

Examples with their reported pIC50 follow.
Response field pIC50 (UniProtKB O75907) for item "O=C(CCN1CCOCC1)Nc1ccc(C2CCN(C(=O)Nc3c(Cl)cccc3Cl)CC2)cc1" : 6.19

Response field pIC50 (UniProtKB O75907) for item "Cc1ccc2[nH]c(-c3ccc(N4CCC(O[C@H]5CC[C@H](CC(=O)O)CC5)CC4)nc3)nc2n1" : 6.36

Response field pIC50 (UniProtKB O75907) for item "CCCCC(=O)Nc1ccc(C2CCN(C(=O)Nc3c(Cl)cccc3Cl)CC2)cc1" : 7.42

[I] COC(=O)c1cccc(C(=O)Nc2ccc(N3CCN(C(=O)Cc4c(Cl)cc(CN5CCCC5)cc4Cl)CC3)cc2)c1
[II] Cc1nc(C)c(-c2ccc(-c3ccc([C@@H](C)C(=O)O)cc3Cl)cc2)nc1C(N)=O (single isomer, unassigned)
[III] O=C(NCCNC(=O)c1ccc(O[C@H]2CC[C@@H](C(=O)O)CC2)cc1F)c1ccc2ccccc2c1
[IV] O=C(CCN1CCOCC1)Nc1ccc(N2CCN(C(=O)Nc3c(Cl)cccc3Cl)CC2)cc1
Exam item: list the entries in increasing order of pIC50. Use the labels to give the requested order.
IV, I, II, III
(IV: 6.41, I: 6.95, II: 7.74, III: 8.57)

###

pIC50: −log10 of the molar value.
The entries that follow carry pIC50 values tested on human DGAT1 (Homo sapiens, UniProt O75907), drawn from several published reports.
Sequence (O75907 whole entry): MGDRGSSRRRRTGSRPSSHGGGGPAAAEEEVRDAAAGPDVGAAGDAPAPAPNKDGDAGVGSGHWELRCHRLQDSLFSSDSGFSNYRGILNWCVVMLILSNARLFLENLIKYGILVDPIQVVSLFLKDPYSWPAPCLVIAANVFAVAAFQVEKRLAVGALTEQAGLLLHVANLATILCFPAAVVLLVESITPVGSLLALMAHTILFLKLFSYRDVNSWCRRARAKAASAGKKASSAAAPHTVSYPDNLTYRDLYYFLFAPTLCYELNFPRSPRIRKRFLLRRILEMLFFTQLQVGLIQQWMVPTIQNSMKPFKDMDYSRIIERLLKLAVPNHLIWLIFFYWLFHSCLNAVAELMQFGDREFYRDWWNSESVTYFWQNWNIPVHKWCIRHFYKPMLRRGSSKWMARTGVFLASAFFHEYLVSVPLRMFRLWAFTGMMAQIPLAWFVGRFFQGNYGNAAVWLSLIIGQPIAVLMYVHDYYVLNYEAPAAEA

Examples with their reported pIC50 follow.
Response field pIC50 (human DGAT1 (Homo sapiens, UniProt O75907)) for item O=C(O)CC1(CC(F)(F)F)CCc2cc(-c3ccc(Nc4ccc(Cl)cc4)cn3)ccc2C1=O (single isomer, unassigned) : ≥ 7.00

Response field pIC50 (human DGAT1 (Homo sapiens, UniProt O75907)) for item "CCOc1cc(C2=Nc3c(N)nc(C)nc3OC2(C)C)ccc1[C@H]1CC[C@H](CC(=O)O)CC1" : 7.00 to 8.00

Next:
Response field pIC50 (human DGAT1 (Homo sapiens, UniProt O75907)) for item "CCCc1c(-c2ncc(-c3ccccc3)o2)c(C(=O)OCC)c2c(-c3ccccc3)cc(N3CCOCC3)nn12" : < 6.30

###

The entries that follow carry pIC50 values tested on human DGAT1 (Homo sapiens), drawn from several published reports.
pIC50: −log10 of the molar value.
Quantity: pIC50

[P] COCCN(C)CC(=O)Nc1ccc(C2CCN(C(=O)Nc3c(Cl)cccc3Cl)CC2)cc1
[Q] C[C@]1(C(=O)O)CC[C@@H](OC2CCN(c3ccc(-c4nc5cc(F)ccc5[nH]4)cn3)CC2)CC1
[R] CC(C)(C)c1ccc(-c2ccccc2C(=O)Nc2ccc(C3CCN(C(=O)Nc4c(Cl)cccc4Cl)CC3)cc2)cc1
[S] COc1ccc(CNC(=O)c2ccc(N3CCN(C(=O)Nc4c(Cl)cc(CN(C(C)C)C(C)C)cc4Cl)CC3)cc2)cc1
[T] CC(C)NC(=O)N(C)CC(=O)Nc1ccc(N2CCN(C(=O)Nc3c(Cl)cccc3Cl)CC2)cc1
Rank items: key pIC50, increasing. Use the labels to give the requested order.
P, R, T, S, Q
(P: 5.85, R: 6.26, T: 6.50, S: 7.09, Q: 7.68)

###

The entries that follow carry IC50 values tested on human DGAT1 (Homo sapiens), drawn from several published reports.
Quantity: IC50 (nM)

Field IC50 (entry "COC(=O)c1cccc(C(=O)Nc2ccc(N3CCN(C(=O)Nc4c(Cl)cc(CN5CCCC5)cc4Cl)CC3)cc2)c1" ) reads 12.6

Field IC50 (entry "COc1cccc(OC)c1NC(=O)N1CCC(c2ccc(NC(=O)c3ccccc3-c3ccc(C(F)(F)F)cc3)cc2)CC1" ) reads 4570

Field IC50 (entry CCC(NC(=O)OC(C)(C)C)C(=O)Nc1ccc(C2CCN(C(=O)Nc3c(Cl)cccc3Cl)CC2)cc1 (stereo not drawn) ) reads 398

[P] COc1ccc(CNC(=O)c2ccc(N3CCN(C(=O)Nc4c(Cl)cc(CN5CCCC5)cc4Cl)CC3)cc2F)cc1
[Q] O=C(Nc1ccc([C@H]2CC[C@H](C(=O)O)CC2)cc1F)c1nnc(Nc2ccc(F)c(F)c2)o1
Task for the reader: decide whether P or Q has the larger IC50. Pick one and reply with its label.
P
(P: 339 nM, Q: 5.5 nM)

###

The entries that follow carry pIC50 values tested on human DGAT1 (Homo sapiens), drawn from several published reports.
pIC50: −log10 of the molar value.

Examples with their reported pIC50 follow.
Field pIC50 (entry CC1(C)Oc2ncnc(N)c2N=C1c1ccc([C@H]2CC[C@H](CC(=O)N3CCC(O)C3)CC2)cc1 (some centres unmarked) ) reads 7.00 to 8.00

Field pIC50 (entry "CC1(C)Oc2nccc(N)c2N=C1c1ccc([C@H]2CC[C@H](CC(=O)O)CC2)cc1" ) reads 7.00 to 8.00

Field pIC50 (entry Cc1ccc(Nc2cnc(-c3ccc4c(c3)CCC(CC(=O)O)(CC(F)(F)F)C4=O)cn2)nc1 (single isomer, unassigned) ) reads 6.30 to 7.00

Field pIC50 (entry "Cc1nc(N)c2c(n1)OC(C)(C)C(c1ccc([C@H]3CC[C@H](CCC(=O)Nc4nn[nH]n4)CC3)cc1)=N2" ) reads > 8.00

Field pIC50 (entry Cc1nc(N)c2c(n1)OC(C)(C)C(c1ccc(C3CC(CC(=O)O)C3(C)C)cc1)=N2 (centres unmarked) ) reads 7.00 to 8.00

Field pIC50 (entry CC1(C)Oc2nc(C(F)(F)F)nc(N)c2N=C1c1ccc(C2CCC(C(C)(C)C(=O)O)CC2)cc1 (centres unmarked) ) reads 7.00 to 8.00

Field pIC50 (entry Cc1ccccc1NC(=O)c1ccc(-c2ccc(NC(=O)c3oc(N4CCCC(C)C4)nc3C(F)(F)F)nc2)cc1 (centres unmarked) ) reads 7.00 to 7.96

Next:
Field pIC50 (entry "Cc1nc(N)c2c(n1)OC(C)(C)C(c1ccc([C@H]3CC[C@H](CNC(=O)CO)CC3)c(Cl)c1)=N2" ) reads 7.00 to 8.00

###

The entries that follow carry IC50 values tested on human DGAT1 (Homo sapiens), drawn from several published reports.

Response field IC50 (human DGAT1 (Homo sapiens)) for item "O=C(Nc1ccc(N2CCC(O)(c3ccccc3)CC2)nc1)c1nc(-c2ccccc2)oc1C(F)(F)F" : 101 to 500 nM

Response field IC50 (human DGAT1 (Homo sapiens)) for item O=C(O)CC1(CC(F)(F)F)CCc2cc(-c3ccc(Nc4ccc(C(F)(F)F)nc4)nn3)ccc2C1=O (single isomer, unassigned) : 500 to 10000 nM

Response field IC50 (human DGAT1 (Homo sapiens)) for item "C[C@]1(C(=O)O)CC[C@@H](OC2CCN(c3ccc(-c4nc5ncc(Cl)cc5[nH]4)cn3)CC2)CC1" : 125 nM

Response field IC50 (human DGAT1 (Homo sapiens)) for item "CC1(C)Oc2nc(C(F)(F)F)nc(N)c2N=C1c1ccc([C@H]2CC[C@H](CNC(=O)CO)CC2)cc1" : 10 to 100 nM

###

The entries that follow carry IC50 values tested on human DGAT1 (Homo sapiens, UniProt O75907), drawn from several published reports.

Examples with their reported IC50 follow.
Response field IC50 (human DGAT1 (Homo sapiens, UniProt O75907)) for item "CN(C)CCNc1ccc(C(=O)NCCNC(=O)c2cn(-c3ccccc3)nc2C(F)(F)F)cn1" : 1000 to 10000 nM

Response field IC50 (human DGAT1 (Homo sapiens, UniProt O75907)) for item "O=C(NCCNC(=O)c1cn(-c2ccccc2)c2ccccc12)c1ccc(OCC(F)(F)F)nc1" : < 100 nM

Response field IC50 (human DGAT1 (Homo sapiens, UniProt O75907)) for item CC1CCCN(c2nc(C(F)(F)F)c(C(=O)Nc3ccc(N4CCN(C(=O)Nc5ccccc5C(=O)O)CC4)nc3)o2)C1 (stereo not drawn) : 11 to 100 nM

Response field IC50 (human DGAT1 (Homo sapiens, UniProt O75907)) for item "CN(c1ncc(C(=O)Nc2ccc(N3CCN(C(=O)Nc4ccccc4F)CC3)nc2)c(C(F)(F)F)n1)C1CCCC1" : 101 to 500 nM

Response field IC50 (human DGAT1 (Homo sapiens, UniProt O75907)) for item "CC1(C)Oc2ncnc(N)c2N=C1c1ccc([C@H]2CC[C@H](Cc3cc(O)[nH]n3)CC2)cc1" : 10 to 100 nM

Switching to the query record.
Response field IC50 (human DGAT1 (Homo sapiens, UniProt O75907)) for item O=C(Nc1ccc(N2CCC(C(O)c3ccccc3)CC2)nc1)c1oc(-c2ccccc2)nc1C(F)(F)F (stereo not drawn) : 11 to 100 nM
